Provide the reported IC50 activity group, enzyme release assay of each item.
Molecular target: T1, human C5aR (CD88) (human, UniProt P21730 1-350)
T1 sequence (looked up): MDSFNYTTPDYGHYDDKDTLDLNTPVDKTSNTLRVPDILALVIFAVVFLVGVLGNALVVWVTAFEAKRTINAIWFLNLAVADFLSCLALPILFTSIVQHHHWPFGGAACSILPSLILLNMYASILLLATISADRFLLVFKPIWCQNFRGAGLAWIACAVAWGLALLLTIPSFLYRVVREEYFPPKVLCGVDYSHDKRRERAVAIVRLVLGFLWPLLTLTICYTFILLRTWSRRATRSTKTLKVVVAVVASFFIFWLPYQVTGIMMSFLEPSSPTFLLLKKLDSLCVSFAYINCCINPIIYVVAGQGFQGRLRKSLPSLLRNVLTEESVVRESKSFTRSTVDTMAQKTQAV
Test: cell-based or functional assay
Starred links: 1 amine or outer side, 2 acyl side, 3 side chain; linkers in the order of their positions; H or OH if unused. Positions of bridges follow the written chain, without caps; N, C: chain ends. Non-standard residues stand in square brackets, D forms with d. No end group written: not given here. Ecg = Cys(2-picolyl), O=C([C@H](CSCc1ccccn1)N[*:1])[*:2]; 1Nal = N[C@@H](Cc1cccc2ccccc12)C(=O)O; 2Nal = N[C@@H](Cc1ccc2ccccc2c1)C(=O)O; dCha = N[C@H](CC1CCCCC1)C(=O)O; Orn = NCCC[C@H](N)C(=O)O

Record excerpt, results attached:
{"Binder": "Ac-F[Orn]P[dCha]W[1Nal]-NH2 [Ac-Phe-Orn-Pro-cha-Trp-1Ni-NH2]", "Observed": "≤ 50 nM"}
{"Binder": "Ac-F[Orn]P[dCha]W[Ecg] (lactam (positions not given here); not fully specified (bridges); printed as Ac-Phe-[Orn-Pro-cha-Trp-Ecg]) [Ac-Phe-[Orn-Pro-cha-Trp-Ecg]]", "Observed": "≤ 2000 nM"}
{"Binder": "Ac-F[Orn]P[dCha]W[2Nal] (lactam (positions not given here); not fully specified (bridges); printed as Ac-Phe-[Orn-Pro-cha-Trp-2Ni]) [Ac-Phe-[Orn-Pro-cha-Trp-2Ni]]", "Observed": "≤ 200 nM"}

[ask] Given the binder H-F[Orn]S[dCha]WF (lactam 2-C; SMILES N[C@@H](Cc1ccccc1)C(=O)N[C@H]1CCCNC(=O)[C@H](Cc2ccccc2)NC(=O)[C@H](Cc2c[nH]c3ccccc23)NC(=O)[C@@H](CC2CCCCC2)NC(=O)[C@H](CO)NC1=O) [H-Phe-[Orn-Ser-cha-Trp-Phe]] , what is its reported IC50 activity group, enzyme release assay?
[reply] ≤ 50 nM
